# Test Summary: PK in rats after PO dosing of the prodrug of Example 1: circulating parent Compound I and prodrug
# Format: in vivo
# Measurement Context: rat, in vivo, 25 mg/kg, Example 1 dosed PO at 25 mpk, analyte = labelled substance
Observation Type: Cmax (µM)
Give bare numbers, in µM.

# input Identify Cmax associated with the compound [2H]C([2H])([2H])NC(=O)c1cnc(NC(=O)C2CC2)cc1Nc1cccc(-c2nnn(C)n2)c1OC [Compound I]
# output 13

###

# Test Summary: PK in rats after PO dosing of the prodrug of Example 1: circulating parent Compound I and prodrug
# Format: in vivo
# Measurement Context: rat, in vivo, 5 mg/kg, Example 1 dosed PO at 5 mpk, analyte = labelled substance
Observation Type: Cmax

# input Tell us which Cmax value is on record for [2H]C([2H])([2H])NC(=O)c1cnc(NC(=O)C2CC2)cc1Nc1cccc(-c2nnn(C)n2)c1OC [Compound I]
# output 4.91 µM

###

# Test Summary: PK in rats after PO dosing of the prodrug of Example 1: circulating parent Compound I and prodrug
# Assay type: in vivo
# Measurement Context: rat, in vivo, 25 mg/kg, Example 1 dosed PO at 25 mpk, analyte = labelled substance
Observation Type: Tmax (h)
One number for each entry, in h.

# input Please give the documented Tmax of [2H]C([2H])([2H])NC(=O)c1cnc(NC(=O)C2CC2)cc1Nc1cccc(-c2nnn(C)n2)c1OC
# output 3

###

# Test Summary: PK in rats after PO dosing of the prodrug of Example 1: circulating parent Compound I and prodrug
# Format: in vivo
# Measurement Context: rat, in vivo, 5 mg/kg, Example 1 dosed PO at 5 mpk, analyte = labelled substance
Observation Type: Tmax (min)
Give bare numbers, in min.

# input Name the recorded Tmax of the compound listed here: [2H]C([2H])([2H])NC(=O)c1cnc(NC(=O)C2CC2)cc1Nc1cccc(-c2nnn(C)n2)c1OC
# output 30

###

# Test Summary: PK in rats after PO dosing of the prodrug of Example 1: circulating parent Compound I and prodrug
# Format: in vivo
# Measurement Context: rat, in vivo, 150 mg/kg, Example 1 dosed PO at 150 mpk, analyte = labelled substance
Assignment: determine reported Cmax for the given compounds.
Give bare numbers, in µM.

> print(dat)
                                item.smiles  observation.type  assay.value
1  [2H]C([2H])([2H])NC(=O)c1cn(COP(=O)([O-])[O-])/c(=N/C(=O)C2CC2)cc1Nc1cccc(-c2nnn(C)n2)c1OC.[Na+].[Na+]              Cmax         0.69

Field: next compound
# input Check the records and state Cmax for [2H]C([2H])([2H])NC(=O)c1cnc(NC(=O)C2CC2)cc1Nc1cccc(-c2nnn(C)n2)c1OC
# output 58.2

###

Record form. Attribute: Tmax. Fill in for each entry.
# Test Summary: PK in rats after PO dosing of the prodrug of Example 1: circulating parent Compound I and prodrug
# Type: in vivo
# Measurement Context: rat, in vivo, 150 mg/kg, Example 1 dosed PO at 150 mpk, analyte = labelled substance
One number for each entry, in h.

> print(dat)
                                   compound  units.symbol  assay.value
1  [2H]C([2H])([2H])NC(=O)c1cnc(NC(=O)C2CC2)cc1Nc1cccc(-c2nnn(C)n2)c1OC [Compound I]             h            3

# input Hello, please tell me recorded Tmax for this one: [2H]C([2H])([2H])NC(=O)c1cn(COP(=O)([O-])[O-])/c(=N/C(=O)C2CC2)cc1Nc1cccc(-c2nnn(C)n2)c1OC.[Na+].[Na+] [Example 1]
# output 0.25

Taken from patent US12528782B2.
